# SYSTEM TESTED: UniProtKB O14744
# Sequence (O14744 whole entry): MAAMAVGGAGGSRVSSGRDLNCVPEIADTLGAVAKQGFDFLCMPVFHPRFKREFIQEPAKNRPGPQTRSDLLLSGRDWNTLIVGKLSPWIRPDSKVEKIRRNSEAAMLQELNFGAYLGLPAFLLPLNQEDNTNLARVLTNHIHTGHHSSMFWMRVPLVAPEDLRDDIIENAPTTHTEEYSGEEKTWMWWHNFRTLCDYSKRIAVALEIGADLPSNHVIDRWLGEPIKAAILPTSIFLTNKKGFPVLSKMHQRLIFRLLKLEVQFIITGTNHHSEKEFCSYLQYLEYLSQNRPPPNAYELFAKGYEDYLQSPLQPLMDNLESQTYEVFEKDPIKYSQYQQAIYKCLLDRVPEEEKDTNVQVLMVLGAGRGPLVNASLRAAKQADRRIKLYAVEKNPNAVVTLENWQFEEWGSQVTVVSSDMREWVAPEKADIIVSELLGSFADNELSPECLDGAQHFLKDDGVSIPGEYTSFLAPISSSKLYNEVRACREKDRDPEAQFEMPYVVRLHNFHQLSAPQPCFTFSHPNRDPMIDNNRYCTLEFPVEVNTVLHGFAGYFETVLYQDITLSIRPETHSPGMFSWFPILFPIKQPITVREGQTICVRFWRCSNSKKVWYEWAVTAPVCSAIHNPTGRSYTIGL
# Sequence (Q9BQA1 whole entry partner): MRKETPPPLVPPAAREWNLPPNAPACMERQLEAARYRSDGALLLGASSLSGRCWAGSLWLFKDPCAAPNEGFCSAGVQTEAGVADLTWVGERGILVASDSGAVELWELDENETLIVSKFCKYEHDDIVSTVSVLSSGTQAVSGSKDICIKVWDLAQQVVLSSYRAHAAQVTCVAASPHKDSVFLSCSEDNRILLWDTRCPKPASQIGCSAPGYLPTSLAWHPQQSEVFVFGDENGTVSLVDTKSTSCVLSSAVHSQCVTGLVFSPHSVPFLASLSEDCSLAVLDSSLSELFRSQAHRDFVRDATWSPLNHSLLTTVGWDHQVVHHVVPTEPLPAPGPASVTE
# EXPERIMENT NOTES: PRMT5 MTA enzyme activity test (Alpha detection)
# Assay type: biochemical
# APPLIED CONDITIONS: PRMT5/MEP50 1 nM with MTA 1 μM; read-out: IC50 value for PRMT5⋅MTA
OUTCOME MEASURE: IC50 (nM)
Please reply with the bare figure in nM and do not write the unit itself.

// returns reported IC50 for input C=Cc1cc(-c2cnn(C)c2-c2c(F)c(Cl)cc(OC3(C)CC3)c2C#N)cc2c(CN)n[nH]c(=O)c12
0.8

----------
# Test system: SDMA production in HCT-116 MTAP−/− cells
# APPLIED CONDITIONS: read-out: HCT-116 MTAP−/− SDMA (IC50); 3 days incubation
OUTCOME MEASURE: IC50 (nM)
Please reply with the bare figure in nM and do not write the unit itself.

// returns reported IC50 for input C=Cc1cc(-c2cnn(C)c2-c2c(F)c(Cl)cc(OC3(C)CC3)c2C#N)cc2c(CN)n[nH]c(=O)c12 [Compound 30]
3.39

Every entry's value here was drawn from patent US20260001868A1.
